- Tested on: SARS-CoV-2
- Procedure details: Antiviral activity against SARS-CoV-2 in Vero E6 cells, qRT-PCR of virus yield in supernatant at 48 h p.i.
- Type: cell-based
- Condition set: Severe acute respiratory syndrome coronavirus 2, Vero C1008, 48 h, read-out: 50% maximal effective concentration (EC50)
pEC50: −log10 of the molar value.

Compound | pEC50
CC(=O)N[C@H]1[C@H]([C@H](O)[C@H](O)CO)OC(C(=O)O)=C[C@@H]1N=C(N)N [Zanamivir] | < 4.00
[H]/N=C(\N)N[C@H]1C=C(C(=O)O)O[C@@H]([C@H](OC)[C@H](O)CO)[C@@H]1NC(C)=O [Laninamivir] | < 4.52
